// provenance: patent US20080119515A1

The following molecules are listed with their measured IC50 values.
- TESTED SYSTEM: ZAP-70 (Homo sapiens, UniProt P43403)
- Sequence (P43403 whole entry): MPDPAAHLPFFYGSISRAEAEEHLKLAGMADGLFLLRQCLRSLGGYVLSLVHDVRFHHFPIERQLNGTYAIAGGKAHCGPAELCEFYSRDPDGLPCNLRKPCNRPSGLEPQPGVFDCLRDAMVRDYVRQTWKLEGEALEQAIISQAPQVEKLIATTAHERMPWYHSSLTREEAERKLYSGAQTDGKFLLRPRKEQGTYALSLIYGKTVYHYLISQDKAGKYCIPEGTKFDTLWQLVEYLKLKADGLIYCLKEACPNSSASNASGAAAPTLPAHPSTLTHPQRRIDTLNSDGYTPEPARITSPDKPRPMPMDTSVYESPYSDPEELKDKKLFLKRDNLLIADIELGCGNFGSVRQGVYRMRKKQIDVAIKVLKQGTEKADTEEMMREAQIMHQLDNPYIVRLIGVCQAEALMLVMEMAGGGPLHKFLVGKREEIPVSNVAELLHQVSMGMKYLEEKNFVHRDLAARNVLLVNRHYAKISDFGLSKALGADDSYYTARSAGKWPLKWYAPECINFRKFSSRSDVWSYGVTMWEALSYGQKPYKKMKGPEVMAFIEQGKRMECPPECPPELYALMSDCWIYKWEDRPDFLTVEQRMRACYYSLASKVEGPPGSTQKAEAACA
- TEST PROTOCOL: DELFIA assay (ZAP-70 kinase, phosphorylation of biotinylated poly(glu,tyr))
- Format: biochemical
- CONDITION SUMMARY: ZAP-70 DELFIA, class symbols; read-out: Activity (IC50 in vitro)

// solved cases for IC50 follow
O=C(c1cc(NCc2ccc(C(F)(F)F)cc2)nc2ccc(-c3ccc4c(c3)OCO4)cc12)N1CC[C@H]1CN1CCCC1    1 to 10 µM
O=C(c1cc(CCc2ccc(F)cc2F)nc2ccc(-c3ccc4c(c3)OCO4)cc12)N1CCC[C@H]1CN1CCCC1    < 1 µM
Cc1c(-c2ccc3nc(NCc4ccc(C(F)(F)F)cc4)cc(C(=O)N4CCC[C@H]4CN4CCCC4)c3c2)sc2ccc(Cl)cc12    > 10 µM
N#Cc1ccc(-c2ccc3nc(NCc4ccc(-c5ccccc5)cc4)cc(C(=O)N4CCC[C@H]4CN4CCCC4)c3c2)cc1    > 10 µM

Hi! What's the reported IC50 for `c1cc(N2CCNCC2)ccc1Nc1cc(Nc2ccc(N3CCNCC3)cc2)c2cc(-c3ccc4c(c3)OCO4)ccc2n1` on ZAP-70 (Homo sapiens, UniProt P43403)?
< 1 µM

Record `O=C(c1cc(NCc2ccc(C(F)(F)F)cc2)nc2ccc(I)cc12)N1CCC[C@H]1CN1CCCC1` : what is its IC50 with ZAP-70 (Homo sapiens, UniProt P43403)?
> 10 µM

Param readout= IC50; system= ZAP-70 (Homo sapiens, UniProt P43403); entry= `N#Cc1ccc(-c2ccc3nc(NCc4ccccc4Cl)cc(C(=O)N4CCC[C@H]4CN4CCCC4)c3c2)cc1` ; returns value.
> 10 µM

Provide the documented IC50 with ZAP-70 (Homo sapiens, UniProt P43403) as the system for `CC(=O)N1CCN(c2cc(C(=O)N3CCC[C@H]3CN3CCCC3)c3cc(-c4ccc5c(c4)OCO5)ccc3n2)CC1`
1 to 10 µM
